Could you please report measured Kd for the items listed next?
Target: T1, human CD16a F176 variant, biotinylated (human, UniProt P08637 17-208, C-terminally biotinylated)
T1 construct: supplier is told for the AlphaScreen assay only; also called F Variant; FcγRIIIA F variant
T1 sequence (P08637 17-208 limits assumed, change not shown): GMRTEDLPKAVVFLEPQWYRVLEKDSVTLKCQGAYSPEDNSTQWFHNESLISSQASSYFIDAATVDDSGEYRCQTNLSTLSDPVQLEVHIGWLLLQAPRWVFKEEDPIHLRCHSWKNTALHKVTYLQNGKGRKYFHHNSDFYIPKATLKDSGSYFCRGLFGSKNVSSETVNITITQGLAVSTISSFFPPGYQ
Test: SPR
Numbered stars: 1 amine (or outer) side, 2 acyl side, 3 side chain; on linkers, the order of the positions; unused ones are H or OH. Bridge positions count the residues as written; N and C are the ends. Square brackets hold non-standard residues; d marks the D form. Primed or numbered codes have the meaning given here. Ends that are not written are not given here. * marks the point of attachment. TBMT = 2,4,6-tris(bromomethyl)-s-triazine, C(c1nc(C[*:2])nc(C[*:3])n1)[*:1]; TBMT″ = 2,4,6-tris(bromomethyl)-s-triazine, scaffold on three Cys; Cba = N[C@@H](CC1CCC1)C(=O)O; Pent4ynoyl = C#CCCC(=O)*
One number for each entry, in nM.

Check out these entries, answers already filled in.
{"Binder": "ACRWHXSEPCGAWCA (CiRWH[Aze]SEPCiiGAWCiii, scaffold TBMT) [BCY20382]", "Recorded Result": 385}
{"Binder": "ACRWSVEDPC[dA]AWCA-NH2 (linker 2-10-14 via TBMT (inferred), scaffold TBMT) [BCY14956]", "Recorded Result": 2660}
{"Binder": "ACPPTVYCHPLDCAK (C-terminal Lys(PYA), scaffold TATA) [BCY15685]", "Recorded Result": 7370}
{"Binder": "ACVGLXELGPCSDLCA (CiVGL[tBuAla]ELGPCiiSDLCiii, scaffold TBMT) [BCY16508]", "Recorded Result": 2980}
{"Binder": "ACVGLEELGPCSDLCAK(Pent4ynoyl)-NH2 (linker 2-11-15 via TBMT (inferred), scaffold TBMT) [BCY13886]", "Recorded Result": 8360}
{"Binder": "ACVGL[Cba]ELGPCSDLCA-NH2 (linker 2-11-15 via TBMT″, scaffold TBMT) [BCY16509]", "Recorded Result": 2820}

Please report Kd for every entry that follows.
1. ACRWHXSEPCGAWCA (CiRWH[HyP]SEPCiiGAWCiii, scaffold TBMT) [BCY20383]
2. ACRWHFXEPCGAWCA (CiRWHF[HSer]EPCiiGAWCiii, scaffold TBMT) [BCY20388]
3. ACRWHFSEPC[dA]AWCA-NH2 (linker 2-10-14 via TBMT″ (inferred), scaffold TBMT) [BCY20392]
4. ACRXSVEDPCGAWCA (CiR[6MeTrp]SVEDPCiiGAWCiii, scaffold TBMT) [BCY19046]

Result string:
470
2980
825
1600

Please report Kd for every entry that follows.
1. ACRXSVEDPCGAWCA (CiR[6ClTrp]SVEDPCiiGAWCiii, scaffold TBMT) [BCY19050]
2. ACVGLXELGPCSDLCA (CiVGL[Nle]ELGPCiiSDLCiii, scaffold TBMT) [BCY16511]

Result string:
[2150, 4020]
